Every entry's value here was drawn from patent US20150376269A1.

EXPERIMENTAL_TARGET: T1, serum resistance-associated protein (SRA) from Trypanosoma brucei rhodesiense, recombinant SRA (SEQ ID NO: … (Trypanosoma brucei rhodesiense, UniProt O96637 31-274))
T1 construct: also called SRA protein
T1 sequence: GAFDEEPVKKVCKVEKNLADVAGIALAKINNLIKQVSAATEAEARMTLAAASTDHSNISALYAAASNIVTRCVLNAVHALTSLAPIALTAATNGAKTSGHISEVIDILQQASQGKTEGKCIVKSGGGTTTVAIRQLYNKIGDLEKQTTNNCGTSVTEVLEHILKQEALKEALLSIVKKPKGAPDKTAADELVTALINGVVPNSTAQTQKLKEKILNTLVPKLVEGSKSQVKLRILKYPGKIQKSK
PROTOCOL_DETAILS: SPR, mAb captured, 25C, assoc. pH 7.4, dissoc. pH 4.5
I'd be grateful if you could share measured t ½ for these entries.
Give bare numbers, in min.

# count of solved cases: 2
[
  {
    "BINDER": "H1H10061P (antibody, V domains shown, Fully human antibody with human IgG1 Fc (prefix H1H)) VH: QVQLVESGGGVVQPGNSLRLSCAASGFTFSAYGMHWVRQAPGKGLEWVAVISYDGSNEFYADSVKGRFTIFRDNSKNMLYLQMNSLRVEDTSIYYCAKDRGLGVYYFFYGMDVWGQGTTVTVSS VL: DIVMTQSPDSLVVSLGERATINCKSSQSLLYSSSNNNYLTWYQQKPGRPPKLLIYWASTRESGVPDRFSGSGSGTDFTLTISSLQAEDVAIYYCQQNYITPLTFGGGTKVEIK",
    "RESULT": 109
  },
  {
    "BINDER": "H1H10067P (antibody, V domains shown, Fully human antibody with human IgG1 Fc (prefix H1H)) VH: QVQLQESGPGLVKPSQTLSLTCIVSGGSISSGDYYWNWIRQHPGKGLEWIGDIYHSGDTYYNPSLKSRVTISLDTSKNQFSLKLSSLTAADTAVYYCARDRIVATGGGMDVWGQGTTVTVSS VL: DIQMTQSPSTLSASVGDRVTITCRASQSISSWLAWYQRKPGKAPNLLIYRSSSLESGVPSRFSGSGSGTEFTLTISSLQADDFVIYYCQQYNSYPYTFGQGTKLEIK",
    "RESULT": 56
  }
]

From here, focus on the item given below.
Return t ½ for the following binder: H1H10059P (antibody, V domains shown, Fully human antibody with human IgG1 Fc (prefix H1H)) VH: QVQLVQSGAEVKKPGASVKVSCKAAGFTFIGYYIHWVRQAPGQGLEWMGWINSNSGDKDSAPKFQDRVTMTRDTSISTAYMELSRLRSDDTAVYFCAREGYNFGHFDYWGQGTLVTVSS VL: DIVMTQTPLSSPVTLGQPASISCRSSQSLVHSDGNTYLSWLQQRPGQPPRLLIYKISNRLSGVPDRFSGSGAGTDFTLKISRVEGEDVGVYYCMQGTQFPRTFGQGTKVEIK
37
